# targetSystem: Carnitine O-palmitoyltransferase 1, liver isoform (Rattus norvegicus, UniProt P32198)
# Sequence (P32198 whole entry, canonical isoform): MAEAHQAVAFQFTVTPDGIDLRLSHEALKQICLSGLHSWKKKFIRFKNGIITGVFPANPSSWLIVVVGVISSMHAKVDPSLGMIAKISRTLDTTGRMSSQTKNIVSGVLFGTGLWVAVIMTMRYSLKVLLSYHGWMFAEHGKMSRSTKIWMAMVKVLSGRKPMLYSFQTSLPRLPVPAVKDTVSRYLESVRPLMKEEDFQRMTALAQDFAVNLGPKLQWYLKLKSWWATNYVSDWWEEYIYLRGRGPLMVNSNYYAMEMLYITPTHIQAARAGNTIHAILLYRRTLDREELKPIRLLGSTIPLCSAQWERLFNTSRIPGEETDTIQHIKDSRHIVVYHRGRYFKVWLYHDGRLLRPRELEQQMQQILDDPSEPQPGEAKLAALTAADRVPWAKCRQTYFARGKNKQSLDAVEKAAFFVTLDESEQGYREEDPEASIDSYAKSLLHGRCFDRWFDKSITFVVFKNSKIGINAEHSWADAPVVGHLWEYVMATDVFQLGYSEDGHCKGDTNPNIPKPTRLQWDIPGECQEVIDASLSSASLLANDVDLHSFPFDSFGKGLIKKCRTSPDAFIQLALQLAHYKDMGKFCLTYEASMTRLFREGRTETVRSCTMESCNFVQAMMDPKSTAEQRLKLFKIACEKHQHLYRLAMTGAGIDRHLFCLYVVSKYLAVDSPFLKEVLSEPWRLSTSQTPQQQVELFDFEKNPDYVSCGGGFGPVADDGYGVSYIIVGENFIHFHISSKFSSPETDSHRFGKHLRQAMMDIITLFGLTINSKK
# protocolText: SUPPLEMENTARY: Inhibition of Carnitine palmitoyltransferase 1, liver isoform
measuredQuantity: IC50 (µM)

Query IC50 for COc1ccc(-c2nc([C@H]3CCCCN3C(=O)COc3ccccc3)cs2)cn1
0.108

Note down IC50 recorded for O=C([C@H]1CCCCN1C(=O)COc1ccccc1)N1CCN(c2ccccn2)CC1
0.588

For the compound COc1ccc(Cl)cc1CN1C(=O)C2(CC2)c2ccc(C(=O)Nc3nc(CC(=O)O)cs3)cc21 , report IC50.
0.0348

(a) O=C(COc1ccccc1)N1CCCC[C@@H]1c1noc(-c2ccc3[nH]c(=O)c(=O)[nH]c3c2)n1
(b) O=C(COc1ccccc1)N1CCNC[C@@H]1c1nc(-c2ccc3[nH]cnc3c2)no1
Returns: the label, a or b , whose recorded IC50 is the lower number. # respond with the chosen item's label
a

(A) O=C([C@H]1CCCCN1C(=O)COc1ccccc1)N1Cc2ccc(OC3CCOCC3)cc2C1
(B) COc1ccc(Cl)cc1S(=O)(=O)N1CC[S+]([O-])c2ccc(C(=O)Nc3ccc(CC(=O)O)cc3)cc21 (centres undefined)
Hello, I am sorting some records. Could you say if A or B has the smaller IC50 value? Your choice should be expressed through its label.
A

(P) COc1ccc(Cl)cc1S(=O)(=O)N1CCCCc2ccc(C(=O)Nc3ccc(C(=O)O)c(Cl)c3)cc21
(Q) COc1ccc(Cl)cc1S(=O)(=O)c1c[nH]c2ccc(C(=O)Nc3nc(CC(=O)O)cs3)cc12
Exercise: compare P and Q ; which one has the greater IC50? Label of pick, please.
P
